Just for reference, PubChem BioAssay AID651814 is where these values come from.

- Tested On: DNA dC->dU-editing enzyme APOBEC-3F (Homo sapiens) (UniProt Q8IUX4)
- Sequence (Q8IUX4 whole entry, looked up): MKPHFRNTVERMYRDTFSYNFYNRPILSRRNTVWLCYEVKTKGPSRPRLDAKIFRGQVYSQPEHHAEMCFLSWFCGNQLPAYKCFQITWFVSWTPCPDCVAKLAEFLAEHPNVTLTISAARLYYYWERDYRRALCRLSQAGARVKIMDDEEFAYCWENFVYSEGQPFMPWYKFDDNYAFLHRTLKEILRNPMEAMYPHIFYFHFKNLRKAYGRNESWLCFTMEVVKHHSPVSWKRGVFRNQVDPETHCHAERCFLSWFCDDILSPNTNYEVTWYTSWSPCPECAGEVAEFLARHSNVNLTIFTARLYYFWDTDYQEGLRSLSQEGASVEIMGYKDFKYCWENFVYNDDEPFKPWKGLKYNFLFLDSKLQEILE
- Assay Info: qHTS for inhibitors of Vif-A3F interactions: Cherry picks; also: nearly all actives have a fitted effect of over 70% in size;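 as to max response: % of control where 0% means no effect; active compounds raise eYFP fluorescence by blocking Vif-driven A3F loss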
- Assay Conditions: HeLa A3F-eYFP + Vif, eYFP fluorescence, 24 h
About 590 (28%) of roughly 2,100 compounds were called active. Inconclusive results (about 42%) are left out. This is one part of the list.
Parameter: max response (%)

>>> print(df.to_string())
                                   compound  result
0  COc1ccc2oc(-c3ccccc3[N+](=O)[O-])cc(=O)c2c1     -28
1  COc1ccc(S(=O)(=O)N2CCN(C(=O)c3ccc([N+](=O)[O-])o3)CC2)cc1   -3.97
2  CNC(=O)C(Sc1nc(C)nc2c1oc1ccccc12)C(C)=O (stereo not given)   -18.1
3  CCOc1ccc2nc(NC(=O)c3nc(SC(C)C)ncc3Cl)sc2c1   -25.8
4  Cc1ccc(F)c(S(=O)(=O)NC(=O)C2(C)CCN2C(=O)Cc2ccc(Cl)cc2Cl)c1 (stereo not given)   0.983

====

- Tested On: DNA dC->dU-editing enzyme APOBEC-3F (Homo sapiens) (UniProt Q8IUX4)
- Assay Info: qHTS for inhibitors of Vif-A3F interactions: Cherry picks; also: nearly all actives have a fitted effect of over 70% in size;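 as to max response: % of control where 0% means no effect; active compounds raise eYFP fluorescence by blocking Vif-driven A3F loss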
- Assay Conditions: HeLa A3F-eYFP + Vif, eYFP fluorescence, 24 h
About 590 (28%) of roughly 2,100 compounds were called active. Another 42% or so got no clear call; they are omitted. Some of the results follow.
Parameter: max response (%)

In [3]: df
Out[3]:
                                    compound     parameter  result
 0                          CCCOc1ccc(N)cc1N  max response    4.36
 1      Cc1ccc(CN(C(=O)c2ccccc2F)c2ccccn2)o1  max response   -5.38
 2  C(=C\c1ccco1)/C1=NN(c2ccccc2)C(c2ccco2)C1 (stereo unspecified)  max response   -27.8
 3  Cc1ccc(-c2cc(C(=O)N/N=C/C(Br)=C/c3ccccc3)n[nH]2)o1  max response   -23.7
 4  O=C(NCc1ccco1)C1Cc2c(-c3cccc(F)c3)ccnc2O1 (stereo unspecified)  max response   -27.2
 5    COc1cccc(CNCCSc2nnnn2C)c1OCc1ccc(F)cc1  max response  -0.625
 6      C=CCN1C=CC(=C/C=C(/C#N)C(=O)OCC)C=C1  max response   -21.4
 7              COCCNC(=S)N/N=C(\C)c1ccccc1O  max response   0.575
 8  N#Cc1c(NC(=O)/C=C/C(=O)O)sc2c1CCN(Cc1ccccc1)C2  max response   -10.7
 9  CCOC(=O)COn1c(=O)c(-c2ccc(Br)cc2)[n+]([O-])c2ccccc21  max response     3.1
10  CCOc1ccccc1N1CC(c2nc3ccccc3n2Cc2c(C)cc(C)cc2C)CC1=O (stereo unspecified)  max response   -7.39

====

The entries below are paired with their reported max response.
- Tested On: DNA dC->dU-editing enzyme APOBEC-3F (Homo sapiens) (UniProt Q8IUX4)
- Assay Info: qHTS for inhibitors of Vif-A3F interactions: Cherry picks; also: nearly all actives have a fitted effect of over 70% in size;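 as to max response: % of control where 0% means no effect; active compounds raise eYFP fluorescence by blocking Vif-driven A3F loss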
- Assay Conditions: HeLa A3F-eYFP + Vif, eYFP fluorescence, 24 h
The campaign covered roughly 2,100 compounds. About 590 (28%) were called active. Another 42% or so got no clear call; they are omitted. Some of the results follow.
Parameter: max response (%)

                                    molecule     parameter  result
 0              O=C1c2ccccc2-c2nc3ccccc3cc21  max response   -23.6
 1          S=C(Nc1ccccc1)N1CCn2c1nc1ccccc12  max response   -7.52
 2  COc1cc(/C=C2\SC(=S)N(NC(=O)c3ccc(O)c(OC)c3)C2=O)ccc1O  max response   -7.15
 3  COCCN(CCOC)Cc1c(O)ccc2c1O/C(=C\c1ccc(C)o1)C2=O  max response   -17.2
 4  O=C(O)c1ccccc1/C=N/Nc1ccc(S(=O)(=O)N2CCOCC2)cc1[N+](=O)[O-]  max response  -0.875
 5  O=C1/C(=C/c2ccc(O)cc2)SC(=S)N1CC1CCCO1 (configuration not stated)  max response     5.6
 6  COC(=O)c1sccc1S(=O)(=O)N(CC(=O)Nc1cc(F)ccc1F)c1ccc(C)c(C)c1  max response    4.72
 7  Cc1ccc(N=Cc2c(O)n(-c3nccs3)c(=O)c3ccccc23)c(C)c1  max response   -4.13
 8   CCN(CC)c1ccc(/C=C/C(=O)c2ccc(Br)cc2)cc1  max response   -4.77
 9  C=C1C(=O)O[C@@H]2[C@H]1[C@@H](OC(=O)/C(C)=C/C)C/C(C)=C\C(=O)/C=C(\C)[C@@H]2O  max response   -29.6
10  CN1CCC(OC(=O)c2cc3cc(Cl)cc(Cl)c3oc2=O)CC1  max response    3.05
11     Cc1ccc2nc(-c3ccccn3)c(Nc3ccccc3C)n2c1  max response   -2.29
12  CCOC(=O)c1c(-c2ccc(OC)cc2)csc1/N=C/C1C(=O)CCCC1=O  max response   -2.18
13  COC(=O)c1sc(-c2cccs2)cc1NC(=O)/C=C/C(=O)O  max response   -22.3
14  O=C(N/N=C/c1c(O)n(-c2ccc(Cl)cn2)c(=O)c2ccccc12)c1ccncc1  max response   -9.07
15  COc1cc(NC(=O)c2ccco2)c(C(=O)OCC(=O)c2c[nH]c3ccccc23)cc1OC  max response   -11.7
16  CCN1/C(=C/c2ccc3ccccc3[n+]2CC)C=Cc2ccccc21  max response     -17
17           Cc1ccc2c(Cl)c(C)c(N3CCCC3)nc2n1  max response    1.73
18       Cc1cc(C)nc(NC(=S)Nc2cccc(Cl)c2Cl)c1  max response   -10.1
19  O=S(=O)(Nc1nc2ccccc2nc1OCC(F)(F)F)c1cccs1  max response   -0.45
20       CN(C)c1ccc(/C=C/c2ccnc3ccccc23)cc1N  max response   -19.7
21  CCn1c(CNC(=O)c2cc(OC)c(OC)c(OC)c2)cc2cc(C)ccc21  max response    2.52

====

- Tested On: DNA dC->dU-editing enzyme APOBEC-3F (Homo sapiens) (UniProt Q8IUX4)
- Assay Info: qHTS for inhibitors of Vif-A3F interactions: Cherry picks; also: nearly all actives have a fitted effect of over 70% in size;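 as to max response: % of control where 0% means no effect; active compounds raise eYFP fluorescence by blocking Vif-driven A3F loss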
- Assay Conditions: HeLa A3F-eYFP + Vif, eYFP fluorescence, 24 h
Screen size: about 2,100 compounds; about 590 (28%) were called active. Inconclusive results (about 42%) are left out. The list shows a part of the results.
Entries annotated with measured max response
Parameter: max response (%)

>>> print(df.to_string())
                                    molecule  result
 0      CC(C)(C)NCC(=Cc1ccccc1)C(=O)c1ccccc1      10
 1       Cc1ccc2nc(-c3ccccn3)c(NC3CCCC3)n2c1   -1.86
 2  CC1=C(n2nnc3ccccc32)C(c2ccccc2)C(C#N)=C(N)O1 (stereo unspecified)   -5.98
 3  Cc1ccccc1C1CC(c2cccs2)=NN1S(C)(=O)=O (stereo unspecified)   -5.18
 4  COc1ccc(OC)c(Nc2nc(-c3ccncc3)nc3ccccc23)c1   -10.6
 5  COc1cccc(NC(=O)c2sc3nc(C)c(C(=O)Nc4ccc(C)cc4C)c(-c4ccco4)c3c2N)c1   -5.66
 6  CCN1CCc2c(sc(-n3cccc3)c2C(C)NC(=O)Nc2ccc(C(=O)OC)cc2)C1 (stereo unspecified)    0.47
 7  COc1cc(C2C(C#N)=C(N)Oc3cc(O)ccc32)cc2c1OCO2 (stereo unspecified)   -28.2
 8  CS(=O)(=O)Nc1ccc(C2=NN(S(C)(=O)=O)C(c3ccc4nccnc4c3)C2)cc1 (stereo unspecified)   -7.65
 9         CCN(CC)c1ccc(/C=N/NC(=S)NC)c(O)c1   -6.91
10  CC(=O)Nc1cccc(-c2ccnc3c2CC(C)(C(=O)NCc2cccs2)O3)c1 (stereo unspecified)   -24.8

====

- Tested On: DNA dC->dU-editing enzyme APOBEC-3F (Homo sapiens) (UniProt Q8IUX4)
- Assay Info: qHTS for inhibitors of Vif-A3F interactions: Cherry picks; also: nearly all actives have a fitted effect of over 70% in size; also: potency is read from the fitted curve at half-maximal effect
- Assay Conditions: HeLa A3F-eYFP + Vif (tagged APOBEC3F with the HIV-1 protein that degrades it), eYFP fluorescence, 24 h
Hit rate of the full screen: of about 2,100 compounds, about 590 (28%) were called active. Roughly 42% stayed inconclusive and do not appear here. This is one part of the list.
Parameter: Potency

                                   compound  parameter            result
0  Cc1cccc2cc3c(N)c(C(=O)Nc4ccc(N5CCOCC5)cc4)sc3nc12    Potency  11.2 µM (active)
1  Cc1ccc(-c2csc(NC3OC(=O)c4ccccc43)n2)cc1 (stereo not given)    Potency    14 µM (active)
2  CCN(CC)C(=O)Cn1c(C)c(/C=C/c2cc[n+](C)cc2)c2ccccc21    Potency  11.2 µM (active)
3  COc1cccc(/C(O)=C/c2nc3ccc(C(=O)NCCc4ccc(Cl)cc4)cc3[nH]c2=O)c1    Potency   8.2 µM (active)
4  Cc1cccc(CN2C(=O)N/C(=C/c3ccc(C)s3)C2=O)c1    Potency  9.94 µM (active)
5  Cc1sc(NC(=O)c2sc3nc4c(C)cccc4cc3c2N)c(C#N)c1C    Potency  17.7 µM (active)
6  CCOc1cc(/C=C2\N=C(SC(C)C(N)=O)N(c3ccc(OC(F)F)cc3)C2=O)ccc1O (stereo not given)    Potency  15.8 µM (active)
7  CCOC(=O)/C=c1\s/c(=C\c2c(OC)ccc3ccccc23)c(=O)n1CC(=O)NCC1CCCO1 (stereo not given)    Potency  14.6 µM (active)
8  Cc1ccc(C)c2nc3sc(C(=O)N4CCOCC4)c(N)c3cc12    Potency  12.5 µM (active)
9   CN(C)c1ccc(/C=C2\SC(N3CCCCC3)=NC2=O)cc1    Potency  16.4 µM (active)
